# System: M14 melanoma
# method-notes: NCI-60 one-dose screen, 48 h
# measurement-conditions: 10 µM unless noted
The panel holds about 83,000 compounds, 20% with a hit somewhere; the sample as a whole holds those more often. Calls of active or inactive are those of the source. Rule for the calls: active = growth percent below 10; inactive = the rest.
Allowed answers: Y for active, N for inactive

Worked cases, answers included:
compound: C/C(=C\c1ccn(-c2ccc(N)cc2F)n1)[C@@H]1C[C@@H]2O[C@]2(C)CCC[C@H](C)[C@H](O)[C@@H](C)C(=O)C(C)(C)[C@@H](O)CC(=O)O1
target-under-test: M14 melanoma
class-name: Y
--
compound: CC1(C)S[C@H]2CC[C@H]3OC(=O)[C@@H]1N23
target-under-test: M14 melanoma
class-name: N
--
compound: Cc1cc[c-]cc1.Fc1c[c-]c(-c2ccccn2)c(F)c1.N#CCC[PH+](CCC#N)c1ccccc1.[Pt+2]
target-under-test: M14 melanoma
class-name: N
--
compound: CNC(=O)CCl
target-under-test: M14 melanoma
class-name: N
--
compound: CCCCCCCCCCCCCCCCCC1OCC(COC(=O)O[C@@H](C(=O)O[C@H]2C[C@@]3(O)[C@@H](OC(=O)c4ccccc4)[C@@H]4[C@]5(OC(C)=O)CO[C@@H]5C[C@H](O)[C@@]4(C)C(=O)[C@H](OC(C)=O)C(=C2C)C3(C)C)[C@@H](NC(=O)c2ccccc2)c2ccccc2)O1 (stereo not given in full)
target-under-test: M14 melanoma
class-name: N
--
compound: COC1C(O)CC(OC2CC(Oc3cc4cc5c(c(O)c4c(O)c3C)C(=O)[C@@H](OC3CC(OC4CC(OC6CC(C)(O)C(OC(C)=O)C(C)O6)C(O)C(C)O4)C(O)C(C)O3)[C@H]([C@H](OC)C(=O)[C@@H](O)[C@@H](C)O)C5)OC(C)C2OC(C)=O)OC1C (stereo not given in full)
target-under-test: M14 melanoma
class-name: Y
--
compound: O=[N+]([O-])c1ccc(P(=O)(O)O)cc1
target-under-test: M14 melanoma
class-name: N
--
compound: C/C(=N/OC(=O)N(C)C)c1ccc(Cl)c(Cl)c1
target-under-test: M14 melanoma
class-name: N
--
compound: O=C(O)c1cc([N+](=O)[O-])cc([N+](=O)[O-])c1
target-under-test: M14 melanoma
class-name: N
--
compound: CCC(Br)(CC)C(=O)NC(N)=O
target-under-test: M14 melanoma
class-name: N

Lookup: Hi, do you know how Clc1ccc(COC(Cn2ccnc2)c2ccc(Cl)cc2Cl)c(Cl)c1 (stereo not given) came out in this test?
Found: N

Lookup: Hi, do you know how COC(=O)[C@@H](C)C[C@H](Cc1ccccc1)NC(=O)c1cccc([C@@H](C[C@H](C(C)C)N(C)C(=O)[C@@H](NC(=O)[C@H]2CCCCN2C)C2CC2)OC(C)=O)n1 came out in this test?
Found: Y

Lookup: Hi, do you know how N#CC(C#N)=Cc1cccc(F)c1 came out in this test?
Found: N
